IC50 values by entry
Tested on: TNFα-FL/Gaussia Luciferase
test.summary: Dox Induced TNFα-FL-Gluc Assay
Type: cell-based
recorded.conditions: 24 hr Dox induction; 293FRT/TO cells; read-out: 24 hr Dox Inducible TNFaFLGluc 293FRT/TO: Mean IC50

compound: O=C1CCc2cc(N3CCC[C@@H]3c3csc(NC(=O)c4cccn4Cc4ccncc4)n3)ccc2N1
unit.info: nM
rel: =
IC50: 71
//
compound: NC(=O)c1ccc(N2CCC[C@@H]2c2csc(NC(=O)c3cccn3Cc3ccncc3)n2)cc1
unit.info: nM
rel: =
IC50: 45.3
//
compound: CC(=O)N1CCC(c2ccc(N3CCC[C@@H]3c3csc(NC(=O)c4cccn4Cc4ccncc4)n3)cc2)CC1
unit.info: nM
rel: =
IC50: 426
//
compound: CC(CC(N)=O)n1cnc(/C=C/c2csc(NC(=O)c3cccn3Cc3ccnc(F)c3)n2)c1 (stereo not shown)
unit.info: nM
rel: >
IC50: 25000

====

System: TNFα-FL/Gaussia Luciferase
test.summary: Dox Induced TNFα-FL-Gluc Assay
Type: cell-based
recorded.conditions: ratio of TNFaFLGluc IC50 to PD1ssGluc IC50
readout: 24 hr Dox Inducible TNFaFLGluc 293FRT/TO: TNF/PD1

substance.smiles: O=C(Nc1nc(-c2cccc(-c3ccccn3)c2)cs1)c1cccn1Cc1ccnc(F)c1
value.measured: >33.0

substance.smiles: CC(C)n1cnc(/C=C/c2csc(NC(=O)c3cccn3Cc3ccnc(F)c3)n2)c1
value.measured: >593

substance.smiles: CCOC(=O)Nc1ccc(N2CCC[C@@H]2c2csc(NC(=O)c3cccn3Cc3ccnc(F)c3)n2)cc1
value.measured: 24

substance.smiles: CC(C)c1cc(/C=C/c2csc(NC(=O)c3cccn3Cc3ccnc(F)c3)n2)n(C)n1
value.measured: >24.5

====

test.summary: Liver Microsome Stability Assay (mouse)
recorded.conditions: mouse liver microsomes, with NADPH, 1.0 uM compound
Given measured Liver Microsome Stability (Multiple Species): Mouse - % Remaining after 30 min w/NADPH, output true if it is greater than or equal to 2% and false if not.

molecule: CC(=O)Nc1c(F)cc(N2CCC[C@@H]2c2csc(NC(=O)c3cccn3Cc3ccnc(F)c3)n2)cc1F
group: false
//
molecule: Cc1ccnc(N2CCC[C@@H]2c2csc(NC(=O)c3cccn3Cc3ccncc3)n2)c1
group: false
//
molecule: CNCc1ccc(N2CCC[C@@H]2c2csc(NC(=O)c3cccn3Cc3ccncc3)n2)cc1
group: true
//
molecule: COCCn1cnc(/C=C/c2csc(NC(=O)c3cccn3Cc3ccncc3)n2)c1
group: false
//
molecule: C[C@H](O)c1ccc(N2CCC[C@@H]2c2csc(NC(=O)c3cccn3Cc3ccnc(F)c3)n2)cc1
group: true
//
molecule: CN1C(=O)CCCC1/C=C/c1csc(NC(=O)c2cccn2Cc2ccncc2)n1 (centres unmarked)
group: false
//
molecule: CC(=O)NC/C=C/c1csc(NC(=O)c2cccn2Cc2ccncc2)n1
group: true

====

Measured Liver Microsome Stability (Multiple Species): Human - % Remaining after 30 min w/NADPH by item
test.summary: Liver Microsome Stability Assay (human)
recorded.conditions: human liver microsomes, with NADPH, 1.0 uM compound
readout: Liver Microsome Stability (Multiple Species): Human - % Remaining after 30 min w/NADPH

molecule: CC(=O)NCCOc1ccc(N2CCC[C@@H]2c2csc(NC(=O)c3cccn3Cc3ccnc(F)c3)n2)cc1 [Compound A121]
value.measured: 8.26%
//
molecule: C[S+]([O-])N1CC(Oc2ccc(N3CCC[C@@H]3c3csc(NC(=O)c4cccn4Cc4ccnc(F)c4)n3)cc2)C1 (stereo partly shown) [Compound A153]
value.measured: 1.88%
//
molecule: CC(=O)NCc1ccc(N2CCC[C@@H]2c2csc(NC(=O)c3cccn3Cc3ccncc3)n2)cc1 [Compound A45]
value.measured: 0.08%
//
molecule: O=C(Nc1nc([C@H]2CCCN2c2ccccc2)cs1)c1cccn1Cc1ccncc1Br [Compound E22]
value.measured: 11.5%

====

Tested on: TNFα-FL/Gaussia Luciferase
test.summary: Dox Induced TNFα-FL-Gluc Assay
Assay type: cell-based
recorded.conditions: ratio of TNFaFLGluc IC50 to PD1ssGluc IC50
readout: 24 hr Dox Inducible TNFaFLGluc 293FRT/TO: TNF/PD1

substance.smiles: CC(=O)N1CCC(Cc2ccc(N3CCC[C@@H]3c3csc(NC(=O)c4cccn4Cc4ccnc(F)c4)n3)cc2)CC1
study.system: TNFα-FL/Gaussia Luciferase
rel: =
value.measured: 14.3

substance.smiles: CCc1cc(/C=C/c2csc(NC(=O)c3cccn3Cc3ccnc(F)c3)n2)no1
study.system: TNFα-FL/Gaussia Luciferase
rel: >
value.measured: 92.2

substance.smiles: O=C(Nc1nc([C@H]2CCCN2c2ccc(OC3=CCNCC3)cc2)cs1)c1cccn1Cc1ccnc(F)c1
study.system: TNFα-FL/Gaussia Luciferase
rel: =
value.measured: 32.9

substance.smiles: O=C(Nc1nc([C@H]2CCCN2c2ccc(CO)cc2)cs1)c1cccn1Cc1ccncc1
study.system: TNFα-FL/Gaussia Luciferase
rel: =
value.measured: 16.2

substance.smiles: COC(=O)Nc1ccc(N2CCC[C@@H]2c2csc(NC(=O)c3cccn3Cc3ccnc(F)c3)n2)cc1
study.system: TNFα-FL/Gaussia Luciferase
rel: =
value.measured: 16.3

substance.smiles: O=C(Nc1nc([C@H]2CCCN2c2ccc(C3CCNCC3)cc2)cs1)c1cccn1Cc1ccncc1
study.system: TNFα-FL/Gaussia Luciferase
rel: =
value.measured: 36.5

substance.smiles: CNCCOc1ccc(N2CCC[C@@H]2c2csc(NC(=O)c3cccn3Cc3ccnc(F)c3)n2)cc1
study.system: TNFα-FL/Gaussia Luciferase
rel: =
value.measured: 29.2

====

System: multiple myeloma cell line NCI-H929
test.summary: H929 Cell Viability Assay
Format: cell-based, human
recorded.conditions: Homo sapiens, NCI-H929, 48 h, NCI-H929 cells, Celltiter-Glo
pEC50: −log10 of the molar value.
# pEC50 values compiled below
readout: pEC50

compound: O=C(Nc1nc(/C=C/c2ncoc2C2CCCCC2)cs1)c1cccn1CC1CCOCC1 [Compound D4]
readout: pEC50
rel: <
value.measured: 4.60
//
compound: COC(=O)Nc1ccc(N2CCC[C@@H]2c2csc(NC(=O)c3cccn3Cc3ccnc(F)c3)n2)cc1 [Compound A144]
readout: pEC50
rel: =
value.measured: 7.80
//
compound: Cc1ccnc(/C=C/c2csc(NC(=O)c3cccn3Cc3ccncc3)n2)c1 [Compound E1]
readout: pEC50
rel: =
value.measured: 4.62
//
compound: O=C(Nc1nc([C@H]2CCCN2c2ccccc2)cs1)c1cccn1CCCC1CCOC1 (some centres unmarked) [Compound C92]
readout: pEC50
rel: =
value.measured: 4.66
//
compound: O=C(Nc1nc(/C=C/c2ncc(F)cc2F)cs1)c1cccn1CC1CCOCC1 [Compound D2]
readout: pEC50
rel: <
value.measured: 4.62
//
compound: CC(C)c1c(/C=C/c2csc(NC(=O)c3cccn3Cc3ccncc3)n2)ncn1C [Compound B85]
readout: pEC50
rel: <
value.measured: 4.60
//
compound: CC(=O)NCc1ccc(N2CCC[C@@H]2c2csc(NC(=O)c3cccn3CC3CCOCC3)n2)cc1 [Compound C104]
readout: pEC50
rel: =
value.measured: 5.21
//
compound: O=C(Nc1nc([C@H]2CCCN2c2ccccc2)cs1)c1cccn1CCCC1COC1 [Compound C116]
readout: pEC50
rel: <
value.measured: 4.60

====

Tested on: multiple myeloma cell line NCI-H929
test.summary: H929 Cell Viability Assay
Type: cell-based, human
recorded.conditions: Homo sapiens, NCI-H929, 48 h, NCI-H929 cells, Celltiter-Glo
pEC50: −log10 of the molar value.
We begin with a simple list: items and their reported pEC50.
readout: pEC50

molecule: O=C(Nc1nc(/C=C/c2ncoc2C2CCCCC2)cs1)c1cccn1Cc1ccncc1 [Compound B52]
readout: pEC50
rel: =
value.measured: 4.80

molecule: O=C(Nc1nc([C@H]2CCCN2c2ccccc2)cs1)c1cccn1-c1csc2cnccc12 [Compound C115]
readout: pEC50
rel: <
value.measured: 4.64

molecule: O=C(Nc1nc(/C=C/c2cn(C3CCCCC3)cn2)cs1)c1cccn1CC1CCOCC1 [Compound D5]
readout: pEC50
rel: =
value.measured: 4.72

molecule: O=C(Nc1nc([C@H]2CCCN2c2ccccc2)cs1)c1cccn1CCc1cccnc1 [Compound E21]
readout: pEC50
rel: =
value.measured: 4.81

molecule: O=C(Nc1nc(/C=C/c2cn(C3CCCCC3)cn2)cs1)c1cccn1Cc1ccncc1 [Compound B54]
readout: pEC50
rel: =
value.measured: 4.86

molecule: CC(C)(C)c1nc(/C=C/c2csc(NC(=O)c3cccn3Cc3ccncc3)n2)co1 [Compound B36]
readout: pEC50
rel: =
value.measured: 5.15

molecule: CC(C)c1cc(/C=C/c2csc(NC(=O)c3cccn3Cc3ccnc(F)c3)n2)no1 [Compound B90]
readout: pEC50
rel: =
value.measured: 4.64

molecule: O=C(Nc1nc(CCc2ccc(OC(F)(F)F)cn2)cs1)c1cccn1Cc1ccncc1 [Compound E7]
readout: pEC50
rel: <
value.measured: 4.60

molecule: O=C(Nc1nc([C@H]2CCCN2c2ccc(OC3CCOCC3)cc2)cs1)c1cccn1Cc1ccncc1 [Compound A1]
readout: pEC50
rel: =
value.measured: 5.91

molecule: CC(C)n1cnc(/C=C/c2csc(NC(=O)c3cccn3Cc3cccnc3)n2)c1 [Compound B63]
readout: pEC50
rel: <
value.measured: 4.60

molecule: O=C1NC(/C=C/c2csc(NC(=O)c3cccn3Cc3ccncc3)n2)CO1 (stereo not shown) [Compound B12]
readout: pEC50
rel: <
value.measured: 4.60

molecule: Cc1ccc(S(=O)(=O)N2CCC[C@@H]2c2csc(NC(=O)c3cccn3Cc3ccncc3)n2)cc1 [Compound E14]
readout: pEC50
rel: <
value.measured: 4.60

molecule: CC(=O)N[C@@H](C)c1ccc(N2CCC[C@@H]2c2csc(NC(=O)c3cccn3Cc3ccncc3)n2)cc1 [Compound A73]
readout: pEC50
rel: =
value.measured: 5.43

molecule: O=C(Nc1nc([C@H]2CCCN2c2ccccc2)cs1)c1cccn1-c1cccc2cnccc12 [Compound C111]
readout: pEC50
rel: <
value.measured: 4.60

molecule: CC(=O)N1CCC(Oc2ccc(N3CCC[C@@H]3c3csc(NC(=O)c4cccn4Cc4ccnc(F)c4)n3)nc2)CC1 [Compound A154]
readout: pEC50
rel: =
value.measured: 5.82

molecule: CC(=O)Nc1ccc(N2CCC[C@@H]2c2csc(NC(=O)c3cccn3C[C@@H](C)CC#N)n2)cc1 [Compound C117]
readout: pEC50
rel: =
value.measured: 5.95

Taken from patent US20230286973A1.
